Attribute: IC50
target: DNA-PK (Homo sapiens (Human), UniProt P78527); assay: DNA-PK Enzyme-Linked Immunosorbent Assay (phosphorylation of GST-p53 (1-101) peptide); type: biochemical; settings: ELISA, ATP 20 μM
Counter-ions that a name gives are not always drawn.
ASSAY_READOUT: IC50

COMPOUND: CN1C(=O)C2(CC2)c2c1cnc1ccc(-c3cnc(OC4CC(N(C)C)C4)c(NS(=O)(=O)c4ccccc4)c3)cc21 (centres unmarked)
ASSAY_READOUT: IC50
RESULT: 1 to 100 nM
//
COMPOUND: CN1C(=O)C2(CC2)c2c1cnc1ccc(-c3cnc(OCCC4CCCN4C)c(NS(=O)(=O)c4ccccc4)c3)cc21 (centres unmarked)
ASSAY_READOUT: IC50
RESULT: 1 to 100 nM
//
COMPOUND: CN1C(=O)C2(CCC2)c2c1cnc1ccc(-c3cnc(N4CC(N(C)C)C4)c(NS(=O)(=O)C4CC4)c3)cc21
ASSAY_READOUT: IC50
RESULT: 1 to 100 nM
//
COMPOUND: CN(C)CCCOc1ncc(-c2ccc3ncc4c(c3c2)C2(CC2)C(=O)N4C)cc1NS(=O)(=O)c1ccccc1OC(F)(F)F
ASSAY_READOUT: IC50
RESULT: 0.5 to 1 nM
//
COMPOUND: CN1C(=O)C2(CCC2)c2c1cnc1ccc(-c3cnc(OCCCN4CCCC4)c(NS(C)(=O)=O)c3)cc21
ASSAY_READOUT: IC50
RESULT: 0.5 to 1 nM
//
COMPOUND: COc1ccc(S(=O)(=O)Nc2cc(-c3ccc4ncc5c(c4c3)C3(CC3)C(=O)N5C)cnc2OCCCN2CCCCC2)cc1 [Example 119, hydrochloride]
ASSAY_READOUT: IC50
RESULT: < 0.5 nM
//
COMPOUND: CN1C(=O)C2(CCC2)c2c1cnc1cc(F)c(-c3cnc(N4CC(N(C)C)C4)c(NS(=O)(=O)c4ccc(F)cc4F)c3)cc21 [Example 315, hydrochloride]
ASSAY_READOUT: IC50
RESULT: 1 to 100 nM
//
COMPOUND: Cc1ccc(S(=O)(=O)Nc2cc(-c3ccc4ncc5c(c4c3F)C3(CC3)C(=O)N5C)cnc2OCCCN(C)C)cc1
ASSAY_READOUT: IC50
RESULT: < 0.5 nM
//
COMPOUND: CNC1CN(c2ncc(-c3ccc4ncc5c(c4c3)C3(CCC3)C(=O)N5C)cc2NS(C)(=O)=O)C1 [Example 329, formate]
ASSAY_READOUT: IC50
RESULT: < 0.5 nM
//
COMPOUND: CN(C)CC1CCN(c2ncc(-c3ccc4ncc5c(c4c3)C3(CC3)C(=O)N5C)cc2NS(=O)(=O)C2CC2)CC1
ASSAY_READOUT: IC50
RESULT: 1 to 100 nM
//
COMPOUND: CN(C)CCCOc1ncc(-c2ccc3ncc4c(c3c2)C2(CCC2)C(=O)N4C)cc1NS(=O)(=O)N1CCN(C)CC1 [Example 162, hydrochloride]
ASSAY_READOUT: IC50
RESULT: 0.5 to 1 nM
//
COMPOUND: CN(C)CCCOc1ncc(-c2ccc3ncc4c(c3c2)C2(CCC2)C(=O)N4C)cc1NS(=O)(=O)C1CC1
ASSAY_READOUT: IC50
RESULT: 1 to 100 nM
//
COMPOUND: CN(C)CCCOc1ncc(-c2ccc3ncc4c(c3c2)C2(CCC2)C(=O)N4C)cc1NS(=O)(=O)c1cc(F)cc(Cl)c1 [Example 171, hydrochloride]
ASSAY_READOUT: IC50
RESULT: 0.5 to 1 nM
//
COMPOUND: CN(C)CCCOc1ncc(-c2ccc3ncc4c(c3c2)C2(CC2)C(=O)N4C)cc1NS(=O)(=O)c1ccc(OC(F)(F)F)cc1
ASSAY_READOUT: IC50
RESULT: < 0.5 nM
//
COMPOUND: CN(C)CCCOc1ncc(-c2cc3c4c(cnc3cc2F)N(C)C(=O)C42CC2)cc1NS(=O)(=O)c1ccc(Cl)cc1 [Example 129, hydrochloride]
ASSAY_READOUT: IC50
RESULT: 1 to 100 nM
//
COMPOUND: Cc1ccc(S(=O)(=O)Nc2cc(-c3ccc4ncc5c(c4c3F)C3(CCC3)C(=O)N5C)cnc2OCCCN(C)C)cc1
ASSAY_READOUT: IC50
RESULT: 0.5 to 1 nM
//
COMPOUND: CN(C)CCCOc1ncc(-c2ccc3ncc4c(c3c2)C2(CCCCC2)C(=O)N4C)cc1NS(=O)(=O)c1ccccc1
ASSAY_READOUT: IC50
RESULT: 1 to 100 nM
//
COMPOUND: CN(C)CCCOc1ncc(-c2ccc3ncc4c(c3c2)C2(CCC2)C(=O)N4C)cc1NS(=O)(=O)c1ccccc1F [Example 168, hydrochloride]
ASSAY_READOUT: IC50
RESULT: < 0.5 nM
//
COMPOUND: CN(C)CCCOc1ncc(-c2ccc3ncc4c(c3c2)C2(CCC2)C(=O)N4C)cc1NS(=O)(=O)c1ccc(F)cc1 [Example 158, hydrochloride]
ASSAY_READOUT: IC50
RESULT: 0.5 to 1 nM
//
COMPOUND: CN(C)CCCOc1ncc(-c2cc3c4c(cnc3cc2F)N(C)C(=O)C42CCC2)cc1NS(=O)(=O)N(C)C [Example 290, hydrochloride]
ASSAY_READOUT: IC50
RESULT: 0.5 to 1 nM
//
COMPOUND: CN(C)CCCCOc1ncc(-c2ccc3ncc4c(c3c2)C2(CC2)C(=O)N4C)cc1NS(=O)(=O)c1ccccc1
ASSAY_READOUT: IC50
RESULT: 0.5 to 1 nM
//
COMPOUND: CC1CCC12C(=O)N(C)c1cnc3ccc(-c4cnc(N5CC(N(C)C)C5)c(NS(C)(=O)=O)c4)cc3c12 (centres unmarked)
ASSAY_READOUT: IC50
RESULT: 1 to 100 nM
//
COMPOUND: CN1C(=O)C2(CC2)c2c1cnc1ccc(-c3cnc(N4CCC(N(C)C)CC4)c(NS(=O)(=O)C4CC4)c3)cc21
ASSAY_READOUT: IC50
RESULT: < 0.5 nM
//
COMPOUND: CN(C)CCCOc1ncc(-c2ccc3ncc4c(c3c2)C2(CCOCC2)C(=O)N4C)cc1NS(=O)(=O)c1ccccc1
ASSAY_READOUT: IC50
RESULT: 1 to 100 nM
//
COMPOUND: CNCCOc1ncc(-c2ccc3ncc4c(c3c2)C2(CCC2)C(=O)N4C)cc1NS(C)(=O)=O
ASSAY_READOUT: IC50
RESULT: < 0.5 nM
//
COMPOUND: CCN(C)S(=O)(=O)Nc1cc(-c2ccc3ncc4c(c3c2)C2(CC2)C(=O)N4C)cnc1N1CCC(N2CCCCC2)CC1
ASSAY_READOUT: IC50
RESULT: 0.5 to 1 nM

Every entry's value here was drawn from patent US12187742B2.
